# credit: paper PMC2628613

tested on: purified HLA-A2; parameters: species or system human; conditions: >50, 20–50, <20% binding at 10^−6 mol/l = high, intermediate, low binders
readout type: Binding to HLA-A2 (in words)

substance | assayed target | meas value
ALWGPDPAAA [15–24] | purified HLA-A2 | high binders
RLLPLLALLAL [6–16] | purified HLA-A2 | high binders
RLLPLLALL [6–14] | purified HLA-A2 | high binders
